target: T1, BSA (bovine, UniProt P02769); assay: DELFIA ELISA, coated antigen;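 further: binding of antibody supernatants or protein-A purified antibodies to plate-coated antigen (3 µg/ml recombinant TCR or BSA), 1 h incubation at room temperature, DELFIA readout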
T1 construct: coated at 3 µg/ml; also called bovine serum albumin, control antigen of the DELFIA ELISA
T1 sequence (P02769 25-607 limits assumed): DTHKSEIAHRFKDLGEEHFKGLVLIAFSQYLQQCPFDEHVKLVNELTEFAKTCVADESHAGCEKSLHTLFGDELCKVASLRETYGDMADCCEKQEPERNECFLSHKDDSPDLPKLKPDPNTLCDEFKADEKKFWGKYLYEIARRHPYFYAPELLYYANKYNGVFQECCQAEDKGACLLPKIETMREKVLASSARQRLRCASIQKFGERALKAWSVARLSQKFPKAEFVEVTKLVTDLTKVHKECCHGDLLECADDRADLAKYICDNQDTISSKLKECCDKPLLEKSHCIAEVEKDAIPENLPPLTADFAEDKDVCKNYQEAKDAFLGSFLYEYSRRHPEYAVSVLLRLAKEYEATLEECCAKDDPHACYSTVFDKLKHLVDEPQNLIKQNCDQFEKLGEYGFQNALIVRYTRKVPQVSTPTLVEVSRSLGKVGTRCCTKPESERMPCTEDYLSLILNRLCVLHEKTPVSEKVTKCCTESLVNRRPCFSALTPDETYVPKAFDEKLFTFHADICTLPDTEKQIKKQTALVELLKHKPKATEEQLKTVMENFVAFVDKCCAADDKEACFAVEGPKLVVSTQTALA
Readout Name: DELFIA ELISA response (FU)

| Binder | Recorded Measurement |
| --- | --- |
| G4_25 (antibody, human IgG1, V domains shown, also called clone G4_25) VH: EVQLVESGAEVKKPGSSVKVSCKASGGTFSSYAISWVRQAPGQGLEWMGGIIPIFGTANYAQKFQGRVTITADKSTSTAYMELSSLRSEDTAVYYCARSLRDGYNYIGSLGYWGQGTLVTVSS VL: SQSALTQPRSVSGSPGQSVTISCTGTSSDVGGYNYVSWYQQHPGKAPKLMIYEVSNRPSGVSNRFSGSKSGNTASLTISGLQAEDEADYYCSSYGSGSVFGTGTKLTVLG | 40 |
| G4_16 (antibody, human IgG1, V domains shown, also called 1248_P02_D10; clone G4_16) VH: EVQLLESGAEVKKPGASVKVSCKASGYTFTSYGISWVRQAPGQGLEWMGWISAYNGNTNYAQKLQGRVTMTTDTSTSTAYMELRSLRSDDTAVYYCARDYGDFYGMDVWGQGTLVTVSS VL: SQSVLTQPPSASGSPGQSVTFSCTGTSSDIGAFNSVSWYQQHPGKAPKLLIYEITKRPSGVPDRFSGSKSGNTASLTISVLQAEDEADYYCTSYAGSNTLIFGGGTKVTVLG | 69 |
| G4_12 (antibody, human IgG1, V domains shown, also called 1140_P01_G08; clone G4_12) VH: EVQLLESGGGLVQPGGSLRLSCAASGFTVSSNYMSWVRQAPGKGLEWVSVIYSGGSTYYADSVKGRFTISRHNSKNTLYLQMNSLRAEDTAVYYCARVANGDFLDYWGRGTLVTVSS VL: SQSVLTQPASVSGSPGQSITISCTGTSSDVGGYNFVSWYQQHPGKAPKLMIYEVTNRPSGVPDRFSGSKSGNTASLTISGLQAEDEADYYCSSHASPRVFGTGTKVTVLG | 80 |
| G4_3 (antibody, human IgG1, V domains shown, also called 1139_P01_A04; G4_03) VH: EVQLVESGGGLVQPGGSLRLSCAASGFTFSSYSMNWVRQAPGKGLEWVSSISSSSSYIYYADSVKGRFTISRDNSKNTLYLQMNSLRAEDTAVYYCARGGWLYDYWGQGTLVTVSS VL: DIQMTQSPSSLSASVGDRVTITCQASQDISNYLNWYQQKPGKAPKLLIYDASNLETGVPSRFSGSGSGTDFTLTISSLQPEDFATYFCQQSYSTPQTFGQGTKVDIKR | 88 |
| G4_22 (antibody, human IgG1, V domains shown, also called clone G4_22) VH: QVQLVESGGGLVQPGGSLRLSCAASGFTFSTYAMSWVRQAPGKGLEWVSTVSGSGGTTYYADSVKGRFTISRDNSKNTLYLQMNSLRAEDTAVYYCAKDSTAVTDWFDPWGRGTLVTVSS VL: DIQMTQSPSSLSASVGDRVTITCQASQDISNYLNWYQQKPGKAPKLLIYAASSLQSGVPSRFSVSGSGTDFTLTISNLQPEDFATYYCQQSYSIPWTFGQGTKVEIKR | 47 |
| G4_18 (antibody, human IgG1, V domains shown, also called 1254_P01_H04; clone G4_18) VH: EVQLVESGAEVKKPGASVKVSCKASGYTFTGYYMHWVRQAPGQGLEWMGRINPNSGGTNYAQKFQGRVTMTRDASISTAYMELSRLRSDDTAVYYCARDLDLSSLDYWGRGTLVTVSS VL: SSYELTQPPSVTESPGQTARITCSGDALAKQYAYWYQQKPGQAPVLVIYRDSERPSEIPERFSGSSSGTTVTLTISGVQAEDEADYYCQSADSSGTYTVFGGGTKLTVLG | 67 |
| G4_20 (antibody, human IgG1, V domains shown, also called 1254_P02_G02; clone G4_20) VH: QVQLVESGAEVKKPGASVKVSCKASGGTFSSYAISWVRQAPGQGLEWMGGIIPIFGTANYAQKFQGRVTITVDKSTRTAYMELSSLRSKDTAVYYCARGNSRSDAFDIWGQGTMVTVSS VL: SSYELTHPPSVSVSPGQTASITCSGDKLGDKFVSWYHQKPGQSPVLVIYQDSKRPSGIPERFSGSNSGNTATLTISGTRAMDEADYYCQAWDSSTVVFGGGTKLTVLG | 132 |
| G4_10 (antibody, human IgG1, V domains shown, also called clone G4_10) VH: QVQLVESGGGVVQPGRPLRLSCAASGFTFSSYAMHWVRQAPGKGLEWVSAISGSGGSTYYADSVKGRFTISRDNSKNTLYLQMNSLRAEDTAVYYCAKDGAVDFWRNGMDVWGRGTLVTVSS VL: DIVMTQPPLSLPVTLGHPASISCKSSQSLEYSDGNTYLNWFQQRPGQSPRRLIYKVSNRDSGAPDRFSGSGSGTDFTLEISRVEAEDVGVYYCMQGTLWPPTFGQGTKVDIKR | 57 |
| G4_15 (antibody, human IgG1, V domains shown, also called clone G4_15) VH: EVQLVQSEAEVKKPGASVKVSCKASGYTFTRHYMHWVRQAPGQGLEWMGLINPSGSSTVYAQKFQGRVTLTRDTSTSTDYMELSSLRSEDTAVYYCARDNSHLDQVWWFDPWGQGTLVTVSS VL: SQSALTQPASVSGSPGQSITISCTGTSSDVGGYNYVSWYQQHPGKAPKLMIYDVSNRPSGVSNRFSGSKSGNTASLTISGLQAEDEADYYCSSYGSGSVFGTGTKLTVLG | 63 |
| G4_2 (antibody, human IgG1, V domains shown, also called clone G4_2) VH: QMQLVQSGAEVKKPGATVKISCKVSGYPFTDYYIHWVQQAPGKGLEWMGLVDPEDGQSRSAERFQGRVTITADTSTDTAYMELSSLRSEDTAVYYCATFPVAGFYGMDVWGQGTLVTVSS VL: DIQMTQSPSSLSASVGDRVTITCQASQDISNYLNWYQQKPGKAPKLLIYAASSLQSGVPSRFSGSGSGTDFTLTISGLQPEDFATYYCLEDYNYLWTFGQGTKLEIKR | 56 |
| G4_28 (antibody, human IgG1, V domains shown, also called clone G4_28) VH: QVQLVESGGGLVQPGGSLRLSCAASGFTFDDYAMHWVRQAPGKGLEWVSGISAGGGSTNYAGSVKGRFTVSRDTSKNTLYLQMNSLRAEDTAVYYCVKSYVDTAMRYYYYYMDVWGQGTMVTVSS VL: SSYELTQDPAVSVALGQTVTITCQGDSLRNYYASWYRQKPGQTPVLVVYGKNNRPSGIPDRFSVSASGNTASLTITGAQAEDEGDYYCNSRDSSGVVFGGGTKVTVLG | 65 |
